tested on: DU145; test: Euclidean distance of Cell Painting phenotypic profile (signed KS, 77 features) to DMSO centroid (dimensionless distance); 5 or 10 uM (library dependent); higher = stronger phenotypic change vs DMSO (phenoactivity); details: 48 h
Structures can show the parent of a compound that is named as a salt.
If the reported Euclidean distance equals or exceeds 1, assign T. If not, assign F.

Worked examples follow.
# COMPOUND, QUALITATIVE_LABEL
records = [
    ("CC(C)N(CCCNC(=O)Nc1ccc(C(C)(C)C)cc1)C[C@H]1O[C@@H](n2cc(Br)c3c(N)ncnc32)[C@H](O)[C@@H]1O", "T"),
    ("C[C@@H]1CN(C(=O)c2ccc(NC(=O)c3cc(O[C@H](C)c4c(Cl)ccc(F)c4Cl)c(N)nn3)cc2)C[C@H](C)N1 [Ensartinib (X-396) dihydrochloride]", "T"),
    ("CC(=O)Nc1nc(C)c(-c2ccc(Cl)c(S(=O)(=O)NCCO)c2)s1", "T"),
    ("NCCS [2-Aminoethanethiol]", "T"),
    ("CCCc1nc(C)c2c(=O)nc(-c3cc(S(=O)(=O)N4CCN(CC)CC4)ccc3OCC)[nH]n12 [Vardenafil HCl Trihydrate]", "T"),
    ("C=CCc1cccc(/C=N/NC(=O)CN2CCN(Cc3ccccc3)CC2)c1O", "T"),
]

Prompt line: Assess whether reported Euclidean distance for O=NN(CCCl)C(=O)NCCCl [Carmustine] sits at 1 or higher.
Response line: T

Prompt line: Assess whether reported Euclidean distance for CC(C)(O)c1cc(Nc2cc(Oc3cn(C4CC4)nc3C3CCOCC3)ccn2)ccn1 sits at 1 or higher.
Response line: T

Prompt line: Assess whether reported Euclidean distance for O=C1c2c(O)ccc(O)c2C(=O)c2c(NCCNCCO)ccc(NCCNCCO)c21 [Mitoxantrone 2HCl] sits at 1 or higher.
Response line: T

Prompt line: Assess whether reported Euclidean distance for CCCNC(C)C(=O)Nc1ccccc1C (configuration not stated) [Prilocaine] sits at 1 or higher.
Response line: F

Prompt line: Assess whether reported Euclidean distance for N#C/C(=C\c1ccc(O)c(O)c1)C(=O)NCc1ccccc1 [AG-490 (Tyrphostin B42)] sits at 1 or higher.
Response line: T

Prompt line: Assess whether reported Euclidean distance for O=C(O)COCCN1CCN(C(c2ccccc2)c2ccc(Cl)cc2)CC1 (configuration not stated) [Cetirizine DiHCl] sits at 1 or higher.
Response line: T

Prompt line: Assess whether reported Euclidean distance for COC(=O)Nc1nc2cc([S+]([O-])c3ccccc3)ccc2[nH]1 (configuration not stated) [Oxfendazole] sits at 1 or higher.
Response line: T

Prompt line: Assess whether reported Euclidean distance for C[C@@H]1O[C@@H]1P(=O)(O)O [Fosfomycin Disodium] sits at 1 or higher.
Response line: F

// provenance: the supplement of paper PMC10127200
